test system: TK-10 renal; test: NCI tumour cell line growth inhibition, 48 h
Recorded Metric: TGI

Example cases with answers are listed next.
Look up TGI with TK-10 renal for this compound: Clc1ccc(-c2nc(-c3ccc(Cl)cc3)[s+]s2)cc1
86.5 µM

Item c1ccc(N=NNNc2ccc(-c3nc4ccccc4[nH]3)cc2)cc1 with TK-10 renal - TGI?
> 100 µM

Identify the measured TGI of COC(=O)c1ccc(OCc2ccc3oc(=O)c(-c4ccccc4)nc3c2)cc1 for TK-10 renal.
> 100 µM

Recall the recorded TGI for COc1ccc(-c2cn3c(n2)sc2cc(C)ccc23)cc1 with TK-10 renal and state it.
47.3 µM

Lab note: need TGI for Cc1nn(-c2ccccc2)c(C)c1/C=N/NC(=O)c1sc(=S)n(-c2ccccc2)c1N on TK-10 renal, anyone have it?
7.19 µM

Next:
Hello, I am looking for reported TGI with TK-10 renal for C=C(Br)CN(C#N)CC(=C)Br . Could you help?
> 100 µM

Param readout= TGI; system= TK-10 renal; entry= O=[N+]([O-])C(=C(NCc1ccccc1)NCc1ccccc1)C(Cl)=C(Cl)Cl ; returns value.
> 100 µM

Item O=C(c1cccs1)N(C(=O)N1CCC(c2ccccc2)CC1)c1ccccc1 with TK-10 renal - TGI?
> 100 µM

Enter reported TGI observed with TK-10 renal for NC1CCC(c2cc3ccccc3s2)(N2CCCCC2)CC1 (configuration not stated)
19 µM

What measured TGI is associated with O=c1oc2c3ccc4ccccc4c3n(Cc3nc4ccccc4[nH]3)c2c2ccccc12 on TK-10 renal?
> 100 µM

Please provide the recorded TGI for CCN(CC)C(=O)CCCCCCCCC1CO1 (configuration not stated) , tested on TK-10 renal.
> 100 µM

Form: Entry = CCCCCCCCCC[C@@H](O)[C@@H]1CC[C@@H]([C@@H]2CC[C@@H]([C@@H](O)CCCCCCCCCCC(O)CC3=CC(C)OC3=O)O2)O1 (some centres not stated) | System = TK-10 renal | TGI = ____
> 10 µM

Form field - read-out: TGI; system: TK-10 renal; submitted item: S=C1CC(c2ccc(Cl)cc2)Sc2ccccc2N1 (configuration not stated)
> 100 µM

// fetch TK-10 renal TGI for CCCCCc1c(CCCC)c(=O)[nH]c2cc(CNCC(OC)OC)ccc12
28.7 µM

Please provide the recorded TGI for CC1=C(N2CC2)C(=O)c2nc3n(c2C1=O)CCC3O (configuration not stated) , tested on TK-10 renal.
0.285 µM

Recorded TGI for CN(C)c1ccc(/C=C2\N=C(c3ccccc3)N(c3nc4c(Cl)cc(Cl)cc4s3)C2=O)cc1 with TK-10 renal, please?
> 100 µM

Quick check: TGI on TK-10 renal, item COc1ccc(N=C/C=C/Nc2ccc(OC)cc2)cc1 ?
27.4 µM

Query for TK-10 renal: what TGI does the record show for CC(C)(C)N=CN1CCC(C(c2ccccc2)c2ccccc2)CC1 ?
> 100 µM

Request body: readout TGI, system TK-10 renal, query O=S(=O)(O)c1ccc2cc(N=Nc3cc(S(=O)(=O)O)c4cccnc4c3O)ccc2c1 . Return the value.
> 100 µM

Param readout = TGI; param system = TK-10 renal; param query = Cc1nnc2c3c(-c4ccccc4)c(-c4ccccc4)oc3nc(N(C)C)n12 ; response: value
> 100 µM

Notebook entry, TK-10 renal assay: TGI of N#CC(c1ccccc1)c1cccc2ccccc12 (configuration not stated) = ?
> 100 µM

Please state recorded TGI (tested on TK-10 renal) of COc1ccc(CNc2nc3ccccc3nc2-c2cccs2)cc1
> 100 µM
